Test system: CCRF-CEM leukemia
Test: NCI-60 one-dose screen, 48 h (100 = growth as untreated, 0 = no growth, -100 = all killed)
Details: 10 µM unless noted
About 83,000 compounds went through this panel and 20% of them were active in at least one assay; those are over-represented in the sample as a whole.
quantity-name: growth (%)

# compound, quantitative-readout
measured = [
    ("Cc1ccc(S(=O)(=O)NCCNc2nc(Nc3ccc(N4CCN(C)CC4)cc3)nc3ccsc23)cc1", 74.3),
    ("O=C(Nc1ccc(F)c(F)c1)c1cc(-c2ccc(F)cc2F)ccc1O", 15.2),
    ("COC(=O)c1ccc(NC2=C/C(=N/S(=O)(=O)c3ccc(C(=O)O)cc3)c3ccccc3C2=O)cc1", 4.48),
    ("O=C(Nc1cccc(C(F)(F)F)c1)c1cc(-c2ccc(F)cc2F)ccc1O", 20.8),
    ("Cc1cc(C(NC(=O)CCCCCNc2cccc3c2C(=O)N(C2CCC(=O)NC2=O)C3=O)c2ccc3c(c2)OC(F)(F)O3)c(O)c2ncccc12 (stereo not given)", 38.6),
]

---

Reported growth values are given for each entry in this list.
Tested on: SN12C renal
Experiment: NCI-60 one-dose screen, 48 h (100 = growth as untreated, 0 = no growth, -100 = all killed)
Settings: 10 µM unless noted
About 83,000 compounds went through this panel and 20% of them were active in at least one assay; those are over-represented in the sample as a whole. Calls of active or inactive are those of the source. How the source made its calls: active means growth percent below 10; inactive means the rest.

# molecule, growth
measured = [
    ("CCO/C=N/C1=C(C#N)C(c2ccc(Cl)cc2)c2sc3c(C)cccc3c2O1 (stereo unspecified)", "26.2% (inactive)"),
    ("COc1ccc(/C=C(/C)c2ccc3ccc(OC)cc3[o+]2)c(O)c1", "85.5% (inactive)"),
    ("CCN(CC)CCn1c2ccc(O)cc2c2sc3cc(OC)ccc3c(=O)c21", "21.5% (inactive)"),
    ("CC(=O)C1=C(C)NC(NN)=NC1c1cccc(Cl)c1 (stereo unspecified)", "98.2% (inactive)"),
    ("Nc1ncc(-c2ccc3ncnc(N4CCc5cc(F)c(Cl)cc54)c3c2)cn1", "17.9% (inactive)"),
    ("N#Cc1c(-c2cccs2)cc(-c2cnccn2)nc1SCC(=O)Nc1ccc(Br)cc1", "87.7% (inactive)"),
    ("NC(N)=Nc1ccc(Oc2cccc(NC(N)=Nc3ccc(Cl)c(C(F)(F)F)c3)c2)cc1", "31% (inactive)"),
    ("COc1cc2nc(Cl)nc(Nc3cccc(C4=Nc5c(N)nc(N)nc5NC(c5ccccc5)C4)c3)c2cc1OC (stereo unspecified)", "93.4% (inactive)"),
    ("CC1(C)CC[C@]2(CN)CC[C@]3(C)C(=CC[C@@H]4[C@@]5(C)CCCNC(C)(C)[C@@H]5CC[C@]43C)[C@H]2C1", "99.5% (inactive)"),
    ("Nc1nc(-c2cccc([N+](=O)[O-])c2)c(N=Nc2cccc([N+](=O)[O-])c2)s1", "22.5% (inactive)"),
    ("N/C(=N\\C(N)=N\\c1nc2ccccc2s1)c1cccc(F)c1", "76.9% [5 µM] (inactive)"),
]

---

compounds and their reported growth
System: LOX IMVI melanoma
Assay: NCI-60 one-dose screen, 48 h (100 = growth as untreated, 0 = no growth, -100 = all killed)
Conditions: 10 µM unless noted
Compounds without any hit were thinned out: in the full panel of roughly 83,000, 20% have a hit.

# compound, unit-tag, growth
rows = [
    ("O=C(CN1CCN(c2cc(=O)[nH]c3ccc(F)cc23)CC1)Nc1ccc(Cl)cc1", "%", 75.2),
    ("Cc1ccc(-c2nnc(SCc3ccc(O)c4ncccc34)n2-c2ccccc2)cc1", "%", 3.35),
    ("COc1ccccc1N1CCN(C2=CC(=O)C(C)=C(C)C2=O)CC1", "%", 94.8),
    ("C=C1CC[C@@H]2[C@](C)(CO)[C@H](O)CC[C@@]2(C)[C@@H]1C/C(O)=C1\\CCOC1=O", "%", 72.9),
    ("COc1cc2oc(-c3cccc(N)c3)cc(=O)c2c(OC)c1OC", "%", 111),
    ("COc1cc(-c2nc(SC(C)C)n(C(C)C)c(=O)c2C#N)ccc1OCc1ccccc1", "%", 62.1),
    ("Nn1c(N/N=C/c2nc3ccccc3s2)n[nH]c1=S", "%", 102),
    ("Cc1ccc(-n2cc(/C=N/NC(=O)c3ccncc3)c(-c3ccc(S(C)(=O)=O)cc3)n2)cc1", "%", 74),
    ("O=c1[nH]c2ccccc2cc1CSc1ccccc1Nc1nccc(-c2ccc(Cl)cc2)n1", "%", 96.3),
    ("COc1cc(/C=N/NC(=O)c2cn(C3CC3)c3c(OC)c(N4CC5CCCNC5C4)c(F)cc3c2=O)ccc1O (stereo not given)", "%", -83.5),
    ("Cn1ccnc1C(=O)/C=C/c1ccc(CNC(=O)c2c(F)c(F)c(F)c(F)c2F)cc1", "%", -66.4),
    ("Cc1ccc(-n2cc(/C=C/C(=O)c3ccc(O)cc3)c(-c3ccc(S(C)(=O)=O)cc3)n2)cc1", "%", 41.9),
    ("O=C(NNc1nc2cc(F)ccc2n2c(CN3CCCC3)ccc12)c1cnccn1", "%", 3.56),
    ("O=C1CC(=O)N2CSCN(C(c3ccccc3)c3nc4ncncc4[nH]3)C2=N1 (stereo not given)", "%", 108),
    ("COc1cc(-c2nn(C(C)(C)C)cc2-c2ccnc(NCCCNS(=O)(=O)c3ccccc3)n2)ccc1Cl", "%", 62.7),
    ("CC(=O)N(C)C1CCc2c(sc(NC(=O)c3ccc(C(C)(C)C)cc3)c2C(N)=O)C1 (stereo not given)", "%", 29.5),
    ("O=C(CSc1nc2ccccc2c(=O)n1-c1ccccc1)Nc1cccc(C(=O)/C=C/c2ccccc2)c1", "%", 86.1),
    ("COc1ccc2[nH]cc(/C=N/Nc3nc4ccccc4s3)c2c1", "%", 30.7),
    ("NC/C(=C/F)COc1ccc2nc(NCc3cccnc3)oc2c1", "%", 98),
    ("O=C(CCC(=O)N1CCOCC1)OCCCCCCSc1ccc([N+](=O)[O-])c2nonc12", "%", -82.2),
]

Where these numbers come from: PubChem BioAssay (NCI)
